# TESTED ON: BaF3 TELJAK2 cells (BafT_J2) (Homo sapiens)
# Construct: fused on or other part: TEL (ETV6) N-terminal part, coding nucleotides 1-487, serves as the oligomerising partner; It is fused through a Sal I site to the JAK2 kinase domain and expressed from pTRE2 in BaF3 cells bearing pTET-off; P41212 (Transcription factor ETV6)
# Sequence (O60674 whole entry, change not shown, the tested form may be a part): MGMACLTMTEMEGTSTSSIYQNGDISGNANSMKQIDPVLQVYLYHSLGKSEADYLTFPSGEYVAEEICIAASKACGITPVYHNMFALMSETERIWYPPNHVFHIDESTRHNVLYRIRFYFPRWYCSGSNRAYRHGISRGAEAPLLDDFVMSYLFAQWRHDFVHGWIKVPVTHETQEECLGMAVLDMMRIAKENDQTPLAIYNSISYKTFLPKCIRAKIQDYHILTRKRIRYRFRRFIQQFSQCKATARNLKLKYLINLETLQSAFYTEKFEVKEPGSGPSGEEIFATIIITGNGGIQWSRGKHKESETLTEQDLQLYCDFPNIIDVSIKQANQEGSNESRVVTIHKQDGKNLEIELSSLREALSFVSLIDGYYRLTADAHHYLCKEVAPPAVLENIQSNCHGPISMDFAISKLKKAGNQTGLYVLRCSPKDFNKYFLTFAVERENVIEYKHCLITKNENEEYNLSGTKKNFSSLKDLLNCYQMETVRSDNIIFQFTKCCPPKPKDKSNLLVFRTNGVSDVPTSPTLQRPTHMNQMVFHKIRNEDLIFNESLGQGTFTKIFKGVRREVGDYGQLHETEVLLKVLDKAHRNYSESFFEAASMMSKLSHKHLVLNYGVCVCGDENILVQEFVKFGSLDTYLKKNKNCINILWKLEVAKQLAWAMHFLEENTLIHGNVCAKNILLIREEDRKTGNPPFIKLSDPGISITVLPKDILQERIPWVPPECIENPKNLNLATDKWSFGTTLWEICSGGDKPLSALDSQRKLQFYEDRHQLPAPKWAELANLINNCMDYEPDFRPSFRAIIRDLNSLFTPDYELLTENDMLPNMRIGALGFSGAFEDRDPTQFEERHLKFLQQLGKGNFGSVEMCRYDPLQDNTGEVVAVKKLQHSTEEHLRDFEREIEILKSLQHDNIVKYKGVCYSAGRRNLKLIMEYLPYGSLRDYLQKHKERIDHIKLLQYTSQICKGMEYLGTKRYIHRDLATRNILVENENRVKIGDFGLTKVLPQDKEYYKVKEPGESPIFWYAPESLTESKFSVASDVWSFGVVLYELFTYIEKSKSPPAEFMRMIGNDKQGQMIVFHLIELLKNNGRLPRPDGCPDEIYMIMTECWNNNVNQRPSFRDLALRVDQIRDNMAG
# PROCEDURE DETAILS: Cellular screening, BaF3 TEL:JAK2 cells, Alamar Blue
# Assay type: cell-based
# CONDITION SET: 40 hr, read-out: BafT_J2 IC50_nM
# Experimental: For screening purposes, compounds were diluted in 96 well plates at a concentration of 20 μM. Plates were warmed at 37° C. for 30 minutes before the assay was performed. […] Compounds to be tested were added (10 μL, 10× final concentration) to a flat bottomed 96-well plate. […] The plates were then read at 544 nm.
MEASUREMENT LABEL: GI50

For orientation, consider the following solved cases.
Asked: Which GI50 reading was recorded for the compound Cc1cnc(Nc2ccc(N3CCOCC3)cc2)nc1Sc1ccc(N2CCSCC2=O)cc1 ?
Given back: > 20 µM

Asked: Which GI50 reading was recorded for the compound Cc1cnc(Nc2cccc(NS(C)(=O)=O)c2)nc1Sc1ccc(CO)cc1 ?
Given back: < 5 µM

More entries:
Asked: Which GI50 reading was recorded for the compound Cc1cnc(Nc2ccc(N3CCOCC3)cc2)nc1Sc1ccc(NC(=O)CO)cc1 ?
Given back: < 20 µM

Asked: Which GI50 reading was recorded for the compound C=CC(=O)Nc1ccc(Sc2ccnc(Nc3cccc(Cl)c3)n2)cc1 ?
Given back: < 5 µM

Asked: Which GI50 reading was recorded for the compound C=CC(=O)Nc1ccc(Sc2ccnc(Nc3cccc(C#N)c3)n2)cc1 ?
Given back: < 5 µM

Asked: Which GI50 reading was recorded for the compound Cc1cnc(Nc2ccc(N3CCOCC3)cc2)nc1Sc1ccc(C(=O)N2CCCC2)cc1 ?
Given back: > 20 µM

Asked: Which GI50 reading was recorded for the compound C=CC(=O)Nc1ccc(Sc2nc(Nc3ccc(N4CCOCC4)cc3)ncc2C)c(C)c1 ?
Given back: > 20 µM

Asked: Which GI50 reading was recorded for the compound C=CC(=O)N(C)c1ccc(Sc2nc(Nc3ccc(N4CCOCC4)cc3)ncc2Br)cc1 ?
Given back: > 20 µM
